Ref: ChEMBL document CHEMBL5058577

Tested on: HEK-293T
assay-notes: Multiplex assay against HEK293T
Format: toxicity, cell-based
test-settings: human, 12 h, 10 µM, compound concentration 10 uM, replicate 2
Quick rule for you: Population Pyknosed Nuclei (%) at 20% or higher means Criterion met, lower means Criterion not met.

A selection of reference data follows.
| compound | study-system | class-label |
| --- | --- | --- |
| Cc1sc2c(c1C)C(c1ccc(Cl)cc1)=N[C@H](CC(=O)OC(C)(C)C)c1nnc(C)n1-2 | HEK-293T | Criterion met |
| Cc1cc(NC(=O)NCCN2CCC(O)(Cc3ccccc3)CC2)c2ccccc2n1 | HEK-293T | Criterion not met |
| Cc1cc(=O)n(C)c2cc(N3C(=O)CC[C@H](NS(=O)(=O)CC(C)C)[C@H]3c3ccc(Cl)cc3)ccc12 | HEK-293T | Criterion met |
| COc1cc2nc(N3CCN(C(=O)c4ccco4)CC3)nc(N)c2cc1OC.Cl [PRAZOSIN HYDROCHLORIDE] | HEK-293T | Criterion not met |

Problem: Dear colleague, could you confirm whether COC(c1ccccc1)(c1ccccc1)[C@H](Oc1nc(C)cc(C)n1)C(=O)O has Population Pyknosed Nuclei (%) at or above 20%?
Solution: Criterion not met

Problem: Next compound: CN(C)C(=O)Cn1cc(-c2ccc(-c3nnc4ccccn34)cc2)cn1
Solution: Criterion not met

Problem: Now give it for C[C@H](NC(=O)CNC(=O)c1cccc(Cl)c1)c1ccccc1 too.
Solution: Criterion not met

Problem: Further, for CC(C)(C)c1ccc(CSc2cnn(C(C)(C)C)c(=O)c2Cl)cc1 ?
Solution: Criterion not met

Problem: Would you mind doing CCCCCCNC(=O)Nc1ccc(S(=O)(=O)Nc2ccc(CCNC[C@H](O)COc3ccc(O)cc3)cc2)cc1 as well?
Solution: Criterion not met

====

Listing of recorded Population Normal (%) by entry.
Tested on: HEK-293T
assay-notes: Multiplex assay against HEK293T
Type: toxicity, cell-based
test-settings: human, 24 h, 1 µM, compound concentration 1 uM, replicate 2
Quick reminder: number only, in %, skip the unit.

Some compounds with recorded Population Normal (%):
| compound | endpoint-value |
| --- | --- |
| O=c1ccc2ccc(OCCCCN3CCN(c4cccc5sccc45)CC3)cc2[nH]1 | 97 |
| CN1C[C@H](C(=O)N[C@]2(C)O[C@@]3(O)[C@@H]4CCCN4C(=O)[C@H](Cc4ccccc4)N3C2=O)C[C@@H]2c3cccc4[nH]cc(c34)C[C@H]21.CS(=O)(=O)O [DIHYDROERGOTAMINE MESYLATE] | 96 |

Problem: For the compound COc1ccc2[nH]c(I)c(CCNC(C)=O)c2c1 , what Population Normal (%) is on record?
Solution: 91

Problem: One more compound: CCCCC[C@H](O)/C=C/[C@H]1[C@H](O)CC(=O)[C@@H]1CCCCCCC(=O)O
Solution: 95

Problem: Repeat with CC(C)(C)c1ccc(CSc2cnn(C(C)(C)C)c(=O)c2Cl)cc1
Solution: 91

====

System: Fibroblast
assay-notes: Multiplex assay against human fibroblast
Type: toxicity, cell-based
test-settings: 48 h, 10 µM, compound concentration 10 uM, replicate 2
Respond with t for Population Mitotic Cells (%) values of 40% and above, f for values below.

Use these answered entries as a reference point.
| molecule | study-system | class-label |
| --- | --- | --- |
| COc1c(Nc2ccc(S(C)(=O)=O)nc2C)ncnc1OC1CCN(C(=O)OC(C)C)CC1 | Fibroblast | f |
| COc1cc2nc(N3CCN(C(=O)COc4c(OC)cccc4C(C)C)CC3)nc(N)c2cc1OC.Cl.Cl | Fibroblast | t |
| OCCCNc1cc(-c2ccnc(Nc3cccc(Cl)c3)n2)ccn1 | Fibroblast | f |
| O=C(O)CCC/C=C\CC1C(O)CC(O)C1/C=C/C(O)COc1cccc(Cl)c1 (centres undefined) | Fibroblast | t |
| COc1ccc2c(c1OCc1ccccc1)C[C@@H](C(=O)O)N(C(=O)C(c1ccccc1)c1ccccc1)C2 | Fibroblast | f |

Alright, here's another molecule for you.
Problem: Quick check, Population Mitotic Cells (%) >= 40%? CC(C)(C)c1ccc(CSc2cnn(C(C)(C)C)c(=O)c2Cl)cc1
Solution: f

====

Measured Population Pyknosed Nuclei (%), listed per entry for reference.
System: HEK-293T
assay-notes: Multiplex assay against HEK293T
Type: toxicity, cell-based
test-settings: human, 48 h, 1 µM, compound concentration 1 uM, replicate 2
Non-standard residues stand in square brackets, D forms with d. Residues, ends and D or L forms follow the SMILES beside them.
A number alone suffices; assume %.

| compound | Population Pyknosed Nuclei (%) |
| --- | --- |
| Nc1nc(-c2ccco2)c2cnn(Cc3ccccc3F)c2n1 | 7 |
| Cc1nn(C)c2nc(NNC(=O)Nc3cc(Cl)nc(Cl)c3)cc(C(C)C)c12 | 5 |
| Cc1cc(=O)n(C)c2cc(N3C(=O)CC[C@H](NS(=O)(=O)CC(C)C)[C@H]3c3ccc(Cl)cc3)ccc12 | 9 |
| COC(c1ccccc1)(c1ccccc1)[C@H](Oc1nc(C)cc(C)n1)C(=O)O [AMBRISENTAN] | 7 |
| COCCCN1CCC(NC(=O)c2cc(Cl)c(N)c3c2OCC3)CC1 [PRUCALOPRIDE] | 6 |
| CC(C)C[C@@H]1NC(=O)[C@@H](C(C)C)NC(=O)[C@@H]2CCCN2C(=O)[C@@H](CC(=O)O)NC(=O)[C@@H](Cc2c[nH]c3ccccc23)NC1=O [BQ-123] (cyclo(L[dW][dD]P[dV])) | 7 |

Problem: For the compound shown here, Cc1cc(O)c(-c2ccc([C@@H](C)CN(C)C)cc2)c2c1[nH]c(=O)c1sccc12 , give the reported Population Pyknosed Nuclei (%).
Solution: 16

Problem: Try the compound CN(C)C/C=C/C(=O)Nc1ccc(C(=O)N2CCCC(Nc3ncc(Cl)c(-c4c[nH]c5ccccc45)n3)C2)cc1 (stereo not drawn)
Solution: 27

====

Tested on: U2OS
assay-notes: Multiplex assay against U2OS
Type: toxicity, cell-based
test-settings: human, 48 h, 1 µM, compound concentration 1 uM, replicate 1
# label = 1 if Total Cell Count < 400 else 0

| compound | class-label |
| --- | --- |
| COc1cc2nc(N3CCN(C(=O)COc4c(OC)cccc4C(C)C)CC3)nc(N)c2cc1OC.Cl.Cl | 0 |
| Cl.Cl.OCCOCCN1CCN(C(c2ccccc2)c2ccc(Cl)cc2)CC1 (configuration not stated) [HYDROXYZINE HYDROCHLORIDE] | 1 |
| Cc1cc(O)c(-c2ccc([C@@H](C)CN(C)C)cc2)c2c1[nH]c(=O)c1sccc12 | 1 |
| CC(C)(C)c1ccc(CSc2cnn(C(C)(C)C)c(=O)c2Cl)cc1 | 1 |

Problem: # TODO verify Total Cell Count < 400 strictly for this compound: COc1cc(C(=O)N2CC[C@@H](O)[C@@H](N)C2)cc2nc(-c3cc4ccccc4n3CC3CC3)n(C)c12.Cl
Solution: 1

Problem: Input Nc1nc(-c2ccco2)c2cnn(Cc3ccccc3F)c2n1
Solution: 0

Problem: Note, next up: Cn1cc(C(=O)OCC2CCN(CCNS(C)(=O)=O)CC2)c2ccccc21
Solution: 1

====

Tested on: Fibroblast
assay-notes: Multiplex assay against human fibroblast
Assay type: toxicity, cell-based
test-settings: 12 h, 10 µM, compound concentration 10 uM, replicate 1
reported-metric: Population Pyknosed Nuclei (%)
Answer in %, number only, no unit symbol.

// solved cases for Population Pyknosed Nuclei (%) follow
| molecule | study-system | unit-abbreviation | Population Pyknosed Nuclei (%) |
| --- | --- | --- | --- |
| CCn1c(-c2nc3cc(C(=O)N4CCCC(N)C4)ccc3n2C)cc2ccccc21.Cl (centres undefined) | Fibroblast | % | 14 |
| Cc1nn(C)c2nc(NNC(=O)Nc3cc(Cl)nc(Cl)c3)cc(C(C)C)c12 | Fibroblast | % | 23 |
| COCCn1c(C)c(C)s/c1=N\C(=O)C1C(C)(C)C1(C)C | Fibroblast | % | 20 |
| Cl.Cl.OCCOCCN1CCN(C(c2ccccc2)c2ccc(Cl)cc2)CC1 (centres undefined) [HYDROXYZINE HYDROCHLORIDE] | Fibroblast | % | 14 |
| C[C@@H]1CC(=O)Nc2cccc(-c3ccc4c(c3)c(-c3cnn(C)c3)nn4C)c2N1 | Fibroblast | % | 17 |
| CN1CCC(C(=O)c2cccc(NC(=O)c3c(F)cc(F)cc3F)n2)CC1 | Fibroblast | % | 13 |

Problem: Population Pyknosed Nuclei (%) lookup needed for Cc1cc(NC(=O)NCCN2CCC(O)(Cc3ccccc3)CC2)c2ccccc2n1 , thanks.
Solution: 15

Problem: Try this molecule too: Cn1cc(C(=O)OCC2CCN(CCNS(C)(=O)=O)CC2)c2ccccc21
Solution: 14

Problem: Would you kindly repeat that for Cc1c(Cc2ccc3ccccc3n2)c2cc(F)ccc2n1CC(=O)O ?
Solution: 8
